- measured_target: T1, CD123 Protein, His Tag, Acro Biosciences Cat. No. ILA-H52H6 (Homo sapiens (Human), UniProt P26951 19-305)
- T1 construct: Bought protein; not shown: His tag
- T1 sequence: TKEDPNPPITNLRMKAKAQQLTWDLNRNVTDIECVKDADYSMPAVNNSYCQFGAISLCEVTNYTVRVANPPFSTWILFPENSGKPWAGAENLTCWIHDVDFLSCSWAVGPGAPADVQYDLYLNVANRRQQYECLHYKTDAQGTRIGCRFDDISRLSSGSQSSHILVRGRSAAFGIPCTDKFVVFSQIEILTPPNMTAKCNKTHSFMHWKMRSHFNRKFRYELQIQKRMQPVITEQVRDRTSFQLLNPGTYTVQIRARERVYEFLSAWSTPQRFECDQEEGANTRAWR
- test: BLI, IgG on anti-human Fc sensor, 50 nM CD123, pH 7.4 and pH 5.4

| binder | binding result |
| --- | --- |
| MYT1429 (antibody, V domains shown, IgG) VH: QVQLVQSGAEVKKPGASVKMSCKASGYTFTDYYMKWVKQAPGQGLEWIGDIIPSHGATFYNQKFKGKATLTVDRSISTAYMHLNRLRSDDTAVYYCTRSHLLRASWFAYWGQGTLVTVSS VL: DFVMTQSPDSLAVSLGERATINCKSSQSLLNSGNQKNYLTWYLQKPGQPPKLLIYWASTRESGVPDRFSGSGSGTDFTLTISSLQAEDVAVYYCQNDYSYPYTFGQGTKLEIK | binds |
| MYT1451 (antibody, V domains shown, IgG) VH: QVQLVQSGAEVKKPGASVKMSCKASGYTFTDYYMKWVKQAPGQGLEWIGDIIPSNGATFYNQKFKGKATLTVDRSISTAYMHLNRLRSDDTAVYYCTRSHLLRASWHAYWGQGTLVTVSS VL: DFVMTQSPDSLAVSLGERATINCKSSQSLLNSGNQKNYLTWYLQKPGQPPKLLIYWASTRESGVPDRFSGSGSGTDFTLTISSLQAEDVAVYYCQNDYSYPYTFGQGTKLEIK | binds |
